# system tested: human P2X4 receptor (Homo sapiens (Human), UniProt Q99571)
# Sequence (Q99571 whole entry): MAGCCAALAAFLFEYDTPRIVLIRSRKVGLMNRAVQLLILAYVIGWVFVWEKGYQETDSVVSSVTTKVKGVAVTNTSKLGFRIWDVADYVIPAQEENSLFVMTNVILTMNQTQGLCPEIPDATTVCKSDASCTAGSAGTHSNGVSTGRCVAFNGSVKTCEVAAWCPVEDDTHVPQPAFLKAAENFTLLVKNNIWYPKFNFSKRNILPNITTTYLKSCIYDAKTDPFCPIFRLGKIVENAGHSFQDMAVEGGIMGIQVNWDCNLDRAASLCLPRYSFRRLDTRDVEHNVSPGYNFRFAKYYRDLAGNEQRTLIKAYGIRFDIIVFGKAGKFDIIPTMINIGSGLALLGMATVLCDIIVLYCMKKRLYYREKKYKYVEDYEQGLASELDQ
# method summary: P2X4 receptor antagonist activity (ATP-induced intracellular calcium, Fura-2 AM)
# condition notes: 1321N1 cells stably expressing human P2X4 receptor; test substance 15 minutes before addition of ATP; Fura-2 AM F340/F380; read-out: Inhibitory activity IC50
Where a name gives a salt, the structure may show the parent alone.
readout: log10(IC50) (log10 of the value in nM)
Note the log scale: values are log10 of IC50 expressed in nM.

Example cases with answers are listed next.
[[record]]
compound = "O=C1CC(=O)N(c2ccc(-n3nnnc3Cc3ccccc3O)nc2)c2ccc3ccccc3c2N1 [Example 11]"
readout = "log10(IC50)"
value = 1.89

[[record]]
compound = "O=C1CC(=O)N(c2ccc(-n3ccnc3CCc3cccc(F)c3)cc2)c2ccc3ccccc3c2N1 [Example 31, hydrochloride]"
readout = "log10(IC50)"
value = 1.71

[[record]]
compound = "O=C1CC(=O)N(c2ccc(-n3ccnc3-c3ccccc3)cc2)c2ccc3ccccc3c2N1 [Example 50]"
readout = "log10(IC50)"
value = 3.57

[[record]]
compound = "NC(=O)c1ccccc1Cn1ccnc1-c1ccc(N2C(=O)CC(=O)Nc3c2ccc2ccccc32)cc1 [Example 53]"
readout = "log10(IC50)"
value = 2.77

[[record]]
compound = "N#Cc1ccccc1CCc1nccn1-c1ccc(N2C(=O)CC(=O)Nc3c2ccc2ccccc32)cc1 [Example 54]"
readout = "log10(IC50)"
value = 2.28

[[record]]
compound = "COc1ccccc1Cc1nnnn1-c1ccc(C2=NCC(=O)Nc3c2ccc2ccccc32)cc1 [Example 19]"
readout = "log10(IC50)"
value = 2.51

[[record]]
compound = "O=C1CC(=O)N(c2ccc(-n3ccnc3CCc3cccc(F)c3)cc2)c2ccc3c(c2N1)CCC3 [Example 79, hydrochloride]"
readout = "log10(IC50)"
value = 1.59

[[record]]
compound = "CC1(C)CN(c2ccc(N3C(=O)CC(=O)Nc4c3ccc3ccccc43)cc2)C(CCc2ccccc2)=N1 [Example 74, hydrochloride]"
readout = "log10(IC50)"
value = 3.40

[[record]]
compound = "O=C1CC(=O)N(c2ccc(-n3ccnc3CCc3ccco3)cc2)c2ccc3ccccc3c2N1 [Example 66, hydrochloride]"
readout = "log10(IC50)"
value = 2.74

[[record]]
compound = "O=C1CC(=O)N(c2ccc(-n3ccnc3CCc3ccccc3F)cc2)c2ccc3c(c2N1)CCC3 [Example 67]"
readout = "log10(IC50)"
value = 1.72


For each listed entry, give its log10(IC50).
1. Cc1cccc(C)c1CCc1nccn1-c1ccc(N2C(=O)CC(=O)Nc3c2ccc2ccccc32)cc1 [Example 37, hydrochloride]
2. CN(C)c1ccccc1Cc1nnnn1-c1ccc(N2C(=O)CC(=O)Nc3c2ccc2ccccc32)cc1 [Example 47, mesylate]

1. 1.90
2. 1.97
